Biological target: the molecule itself
Experiment: SEC
Reported percent dimer (Monomer:Dimer Ratio) values follow for various proteins
ENDPOINT LABEL: percent dimer (Monomer:Dimer Ratio)

{"columns": ["PROTEIN", "TEST VALUE"],
 "data": [
  ["MjCobY P20A (enzyme, Methanocaldococcus jannaschii, UniProt Q58517 1-196, looked up) MDALIMAGGKGTRMGGVEKALIKLCGRCLIDYVVSPLLKSKVNNIFIATSPNTPKTKEYINSAYKDYKNIVVIDTSGKGYIEDLNECIGYFSEPFLVVSSDLINLKSKIINSIVDYFYCIKAKTPDVEALAVMIPKEKYPNPSIDFNGLVPAGINVVSPKHGYQKEEIMVIDELIFNINTKDDLKLAEMLLKKDGL", "37%"],
  ["MjCobY D101G (enzyme, Methanocaldococcus jannaschii, UniProt Q58517 1-196, looked up) MDALIMAGGKGTRMGGVEKPLIKLCGRCLIDYVVSPLLKSKVNNIFIATSPNTPKTKEYINSAYKDYKNIVVIDTSGKGYIEDLNECIGYFSEPFLVVSSGLINLKSKIINSIVDYFYCIKAKTPDVEALAVMIPKEKYPNPSIDFNGLVPAGINVVSPKHGYQKEEIMVIDELIFNINTKDDLKLAEMLLKKDGL", "66%"]
]}
